Would you mind telling me the reported shrunken log2 fold change of each entry?
- Tested on: Escherichia coli TOP10
- assay-text: shrunken log2 fold change of peptide-encoding DNA abundance (4.5 h post-induction vs induction); higher = less antimicrobial activity (less host growth inhibition)
- particulars: time post-induction: 4.5 h; library: site-saturation at positions 5, 18, 19, 20
Numbers only.

# example entries with known answers
- sequence: "RRIRGRPPRLPRPRPRPHALPRP"
  property: "shrunken log2 fold change"
  reported-value: 0.0818
- sequence: "RRIRGRPPRLPRPRPRPQTHPRP"
  property: "shrunken log2 fold change"
  reported-value: 1.41
- sequence: "RRIRPRPPRLPRPRPRPATCPRP"
  property: "shrunken log2 fold change"
  reported-value: 1.55
- sequence: "RRIRMRPPRLPRPRPRPFRTPRP"
  property: "shrunken log2 fold change"
  reported-value: -0.21
- sequence: "RRIRLRPPRLPRPRPRPHLQPRP"
  property: "shrunken log2 fold change"
  reported-value: -0.0975

Look up shrunken log2 fold change for the entries below, preserving their order.
1. RRIRRRPPRLPRPRPRPHSLPRP
2. RRIRMRPPRLPRPRPRPQPWPRP
3. RRIRDRPPRLPRPRPRPHELPRP
4. RRIRYRPPRLPRPRPRPCRNPRP
5. RRIRTRPPRLPRPRPRPDWPPRP
6. RRIRARPPRLPRPRPRPSVEPRP
7. RRIRKRPPRLPRPRPRPCYFPRP

Outgoing:
[-0.113, 0.561, -0.124, -0.072, 0.135, 0.49, -0.00436]

---

- Tested on: Escherichia coli TOP10
- assay-text: shrunken log2 fold change of peptide-encoding DNA abundance (4.5 h post-induction vs induction); higher = less antimicrobial activity (less host growth inhibition)
- particulars: time post-induction: 4.5 h; library: site-saturation at positions 5, 18, 19, 20
Would you mind telling me the reported shrunken log2 fold change of each entry?
Numbers only.

# example entries with known answers
- sequence: "RRIRYRPPRLPRPRPRPKHDPRP"
  shrunken log2 fold change: -0.648
- sequence: "RRIRSRPPRLPRPRPRPNQKPRP"
  shrunken log2 fold change: -0.162
- sequence: "RRIRVRPPRLPRPRPRPILIPRP"
  shrunken log2 fold change: -0.413
- sequence: "RRIRGRPPRLPRPRPRPWKEPRP"
  shrunken log2 fold change: 0.275
- sequence: "RRIRMRPPRLPRPRPRPADRPRP"
  shrunken log2 fold change: 0.707

Look up shrunken log2 fold change for the entries below, preserving their order.
1. RRIRMRPPRLPRPRPRPHHCPRP
2. RRIRQRPPRLPRPRPRPPEGPRP
3. RRIRSRPPRLPRPRPRPPVTPRP
4. RRIRLRPPRLPRPRPRPVAYPRP
5. RRIRPRPPRLPRPRPRPQRFPRP
6. RRIRYRPPRLPRPRPRPHSNPRP
7. RRIRARPPRLPRPRPRPRQRPRP
8. RRIRRRPPRLPRPRPRPPFFPRP

Outgoing:
[-0.27, 0.228, -0.0798, -0.438, 0.0622, -0.0748, 1.13, 0.565]

---

- Test system: Escherichia coli TOP10;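 note: peptides expressed intracellularly from a pBAD plasmid library in pooled LB shake-flask culture, induced with 0.3% L-arabinose, DNA abundance read by NGS, three biological replicates, DESeq2 with apeglm shrinkage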
- assay-text: shrunken log2 fold change of peptide-encoding DNA abundance (4.5 h post-induction vs induction); higher = less antimicrobial activity (less host growth inhibition)
- particulars: time post-induction: 4.5 h; library: site-saturation at positions 5, 18, 19, 20
Decide using shrunken log2 fold change: a value greater than or equal to 0.1 is T, a smaller one is F.

- sequence: "RRIRCRPPRLPRPRPRPRSLPRP"
  target-or-test-system: "Escherichia coli TOP10"
  class-name: "T"
- sequence: "RRIRARPPRLPRPRPRPCAFPRP"
  target-or-test-system: "Escherichia coli TOP10"
  class-name: "T"
- sequence: "RRIRKRPPRLPRPRPRPKCLPRP"
  target-or-test-system: "Escherichia coli TOP10"
  class-name: "T"

# evaluate next
Incoming: Say whether `RRIRYRPPRLPRPRPRPWQNPRP` shows shrunken log2 fold change of 0.1 or more.
Outgoing: F
